System: Caenorhabditis elegans N2
Experiment: lowest effective concentration for larval growth inhibition (size below effect threshold); higher = less potent
Conditions: exposure time 48 h
Where a name gives a salt, the structure may show the parent alone.
reported-endpoint: lowest effective concentration

molecule="O=C(Nc1ccc(Cl)cc1)Nc1ccc(Cl)c(Cl)c1 [3,4,4'-Trichlorocarbanilide]" target_of_assay="Caenorhabditis elegans N2" recorded_value="≤ 0.5 µM"
molecule="C=CCOC(=O)C(C)(C)OC(=O)c1cc(-n2c(=O)cc(C(F)(F)F)n(C)c2=O)ccc1Cl [Butafenacil]" target_of_assay="Caenorhabditis elegans N2" recorded_value="> 200 µM"
molecule="OC(c1ccc(Cl)cc1)(c1cncnc1)c1ccccc1Cl (stereo not drawn) [Fenarimol]" target_of_assay="Caenorhabditis elegans N2" recorded_value="50 µM"
molecule="CN(C)[C@@H]1C(=O)C(C(N)=O)=C(O)[C@@]2(O)C(=O)C3=C(O)c4c(O)cccc4[C@@](C)(O)[C@H]3[C@H](O)[C@@H]12 [Oxytetracycline hydrochloride]" target_of_assay="Caenorhabditis elegans N2" recorded_value="100 µM"
molecule="CCNC(=O)NC(=O)/C(C#N)=N/OC [Cymoxanil]" target_of_assay="Caenorhabditis elegans N2" recorded_value="100 µM"
molecule="CC(=O)OCCOCCOCCOC(C)=O [Triethylene Glycol Diacetate]" target_of_assay="Caenorhabditis elegans N2" recorded_value="> 200 µM"
molecule="Cc1cc(=O)[nH]c(=S)[nH]1 [Methylthiouracil]" target_of_assay="Caenorhabditis elegans N2" recorded_value="> 200 µM"
molecule="CCOc1nc(F)cc2nc(S(=O)(=O)Nc3c(Cl)cccc3Cl)nn12 [Diclosulam]" target_of_assay="Caenorhabditis elegans N2" recorded_value="> 200 µM"

* * *

mean nematode size ln(EXT) (ln) values, listed per item
System: Caenorhabditis elegans N2
Assay: mean nematode size ln(EXT) after 48 h, plate-adjusted (DMSO control set to 6) (ln(EXT), control-adjusted); higher = larger nematodes / less growth inhibition
Details: 5 µM; exposure time 48 h
reported-endpoint: mean nematode size ln(EXT) (ln)

molecule="O=[N+]([O-])/N=C1\\NCCN1Cc1ccc(Cl)nc1 [Imidacloprid]" reported_endpoint="mean nematode size ln(EXT) (ln)" recorded_value=6.07
molecule="CC(=O)c1ccccc1 [Acetophenone]" reported_endpoint="mean nematode size ln(EXT) (ln)" recorded_value=6.03
molecule="O=C1c2c(O)cccc2Cc2cccc(O)c21 [Dithranol]" reported_endpoint="mean nematode size ln(EXT) (ln)" recorded_value=5.81
molecule="COc1ccc(C(=O)Nc2nc3ccccc3c(NCc3ccccc3)c2C#N)cc1 [N-[4-(benzylamino)-3-cyanoquinolin-2-yl]-4-methoxybenzamide]" reported_endpoint="mean nematode size ln(EXT) (ln)" recorded_value=5.49
molecule="Nc1ccccc1N [1,2-Phenylenediamine]" reported_endpoint="mean nematode size ln(EXT) (ln)" recorded_value=5.92
molecule=OCC(CO)n1cnc(-c2ccc(F)cc2)c1-c1ccnc(Oc2ccccc2)n1 reported_endpoint="mean nematode size ln(EXT) (ln)" recorded_value=5.97
molecule="Oc1cccc2cccnc12 [8-Hydroxyquinoline]" reported_endpoint="mean nematode size ln(EXT) (ln)" recorded_value=5.91
molecule="CCC(CC)Nc1c([N+](=O)[O-])cc(C)c(C)c1[N+](=O)[O-] [Pendimethalin]" reported_endpoint="mean nematode size ln(EXT) (ln)" recorded_value=5.86
molecule="Nc1nc(=O)c2nc(CNc3ccc(C(=O)N[C@@H](CCC(=O)O)C(=O)O)cc3)cnc2[nH]1 [Folic acid]" reported_endpoint="mean nematode size ln(EXT) (ln)" recorded_value=5.91

* * *

Test system: Caenorhabditis elegans N2
Assay: mean nematode size ln(EXT) after 48 h, plate-adjusted (DMSO control set to 6) (ln(EXT), control-adjusted); higher = larger nematodes / less growth inhibition
Settings: 100 µM; exposure time 48 h
reported-endpoint: mean nematode size ln(EXT) (ln)

compound="CCOC(=O)CC(SP(=O)(OC)OC)C(=O)OCC (stereo not drawn)" recorded_value=5.94
compound=O=S(=O)(O)c1ccc(N=Nc2c(O)ccc3cc(S(=O)(=O)O)ccc23)cc1 recorded_value=5.91
compound="COC(=O)CCCCC(=O)OC [Dimethyl adipate]" recorded_value=5.85
compound=COP(=S)(OC)SCN1C(=O)c2ccccc2C1=O recorded_value=5.52
compound="CC(=O)OC1CC(C)OC(C)O1 (stereo not drawn) [2,6-Dimethyl-1,3-dioxan-4-ol acetate]" recorded_value=5.75
compound=CCCCN(CCCC)N=O recorded_value=6.08
compound=Cc1ncc(CO)c(CO)c1O recorded_value=5.92
compound="O=C(OCCCCCCOC(=O)c1ccccc1)c1ccccc1 [1,6-Hexanediol dibenzoate]" recorded_value=5.49
compound=CCCN(CCOc1c(Cl)cc(Cl)cc1Cl)C(=O)n1ccnc1 recorded_value=5.98
compound=Cc1cc(N=Nc2ccccc2C)ccc1N recorded_value=3.57
compound=CCOc1ccc(C(C)(C)COCc2cccc(Oc3ccccc3)c2)cc1 recorded_value=5.39
compound=CC(=O)c1ccc2c(c1)[C@H](NC(=O)c1ccc(F)cc1)[C@@H](O)C(C)(C)O2 recorded_value=5.93
compound="CN1C(=O)CC[C@H]1c1cccnc1 [(-)-Cotinine]" recorded_value=5.87
compound=CC(c1ccc(O)cc1)(c1ccc(O)cc1)c1ccc(O)cc1 recorded_value=5.39
compound="C=C(C)C(=O)OCCC(F)(F)C(F)(F)C(F)(F)C(F)(F)C(F)(F)C(F)(F)F [3,3,4,4,5,5,6,6,7,7,8,8,8-Tridecafluorooctyl methacrylate]" recorded_value=5.45
compound=Nc1nc(=O)c2nc(CNc3ccc(C(=O)N[C@@H](CCC(=O)O)C(=O)O)cc3)cnc2[nH]1 recorded_value=6
compound=C[C@]12C=CC(=O)C=C1CC[C@H]1[C@@H]3C[C@@H](O)[C@](O)(C(=O)CO)[C@@]3(C)C[C@H](O)[C@@]12F recorded_value=5.86
compound=O=C(O)COc1nc(Cl)c(Cl)cc1Cl recorded_value=5.48

* * *

Test system: Caenorhabditis elegans N2
Experiment: mean nematode size ln(EXT) after 48 h, plate-adjusted (DMSO control set to 6) (ln(EXT), control-adjusted); higher = larger nematodes / less growth inhibition
Details: 1 µM; exposure time 48 h
Where a name gives a salt, the structure may show the parent alone.
This section presents compounds with their documented mean nematode size ln(EXT) (ln) values.
reported-endpoint: mean nematode size ln(EXT) (ln)

compound="CCCC(=O)OCCC(C)C [Isoamyl butyrate]" reported_endpoint="mean nematode size ln(EXT) (ln)" recorded_value=5.91
compound="Oc1ccc2ccc3cccc4ccc1c2c34 [1-Hydroxypyrene]" reported_endpoint="mean nematode size ln(EXT) (ln)" recorded_value=5.88
compound=Cc1nccn1-c1ccc(Sc2cccc(C3(C(N)=O)CCOCC3)c2)cc1 reported_endpoint="mean nematode size ln(EXT) (ln)" recorded_value=6.03
compound="CC(C)NCC(O)c1ccc(O)c(O)c1 (stereo not given) [Isoprenaline hydrochloride]" reported_endpoint="mean nematode size ln(EXT) (ln)" recorded_value=5.97
compound=CSc1ccc(Oc2ccc(S(N)(=O)=O)cc2CN(C)C)cc1C reported_endpoint="mean nematode size ln(EXT) (ln)" recorded_value=5.87
compound="CC(C)C(=O)OCC(C)(C)C(OC(=O)C(C)C)C(C)C (stereo not given) [2,2,4-Trimethyl-1,3-pentanediol diisobutyrate]" reported_endpoint="mean nematode size ln(EXT) (ln)" recorded_value=6.03
compound="CC/C(=C(\\c1ccccc1)c1ccc(OCCN(C)C)cc1)c1ccccc1 [Tamoxifen]" reported_endpoint="mean nematode size ln(EXT) (ln)" recorded_value=5.76
compound="COC(=O)c1c(C(F)F)nc(C(F)(F)F)c(C2=NCCS2)c1CC(C)C [Thiazopyr]" reported_endpoint="mean nematode size ln(EXT) (ln)" recorded_value=5.89
compound="CCCOC(=O)NCCCN(C)C [Propamocarb hydrochloride]" reported_endpoint="mean nematode size ln(EXT) (ln)" recorded_value=5.93
compound=CC(C)(O)c1ccc(CNC(=O)c2cccnc2Oc2ccc(F)cc2)cc1 reported_endpoint="mean nematode size ln(EXT) (ln)" recorded_value=6.01

* * *

Test system: Caenorhabditis elegans N2
Experiment: mean nematode size ln(EXT) after 48 h, plate-adjusted (DMSO control set to 6) (ln(EXT), control-adjusted); higher = larger nematodes / less growth inhibition
Conditions: 50 µM; exposure time 48 h
Structures can show the parent of a compound that is named as a salt.
mean nematode size ln(EXT) (ln) overview
reported-endpoint: mean nematode size ln(EXT) (ln)

molecule=CC(C)(O)c1ccc(CNC(=O)c2cccnc2Oc2ccc3nonc3c2)cc1 target_of_assay="Caenorhabditis elegans N2" reported_endpoint="mean nematode size ln(EXT) (ln)" recorded_value=5.92
molecule="O=C(O)C(F)(F)C(F)(F)C(F)(F)C(F)(F)C(F)(F)C(F)(F)C(F)(F)C(F)(F)C(F)(F)C(F)(F)F [Perfluoroundecanoic acid]" target_of_assay="Caenorhabditis elegans N2" reported_endpoint="mean nematode size ln(EXT) (ln)" recorded_value=3.63
molecule="CCc1ccc(CCOc2ccc(CC3SC(=O)NC3=O)cc2)nc1 (centres undefined) [Pioglitazone HCl]" target_of_assay="Caenorhabditis elegans N2" reported_endpoint="mean nematode size ln(EXT) (ln)" recorded_value=5.91
molecule="C=CN1CCCC1=O [N-Vinyl-2-pyrrolidone]" target_of_assay="Caenorhabditis elegans N2" reported_endpoint="mean nematode size ln(EXT) (ln)" recorded_value=5.89
molecule="CCCCCCC(=O)O [Heptanoic acid]" target_of_assay="Caenorhabditis elegans N2" reported_endpoint="mean nematode size ln(EXT) (ln)" recorded_value=5.85
molecule="O=C(O)CCCCC(=O)O [Adipic acid]" target_of_assay="Caenorhabditis elegans N2" reported_endpoint="mean nematode size ln(EXT) (ln)" recorded_value=5.76
molecule="CCCCC(CC)CO (centres undefined) [2-Ethyl-1-hexanol]" target_of_assay="Caenorhabditis elegans N2" reported_endpoint="mean nematode size ln(EXT) (ln)" recorded_value=5.7
molecule="CC(C)(OOC(C)(C)c1ccccc1)c1ccccc1 [Dicumyl peroxide’-(Dioxydipropane-2,2-diyl)dibenzene)]" target_of_assay="Caenorhabditis elegans N2" reported_endpoint="mean nematode size ln(EXT) (ln)" recorded_value=5.62
molecule="O=C1C2CC=CCC2C(=O)N1SC(Cl)(Cl)Cl (centres undefined) [Captan]" target_of_assay="Caenorhabditis elegans N2" reported_endpoint="mean nematode size ln(EXT) (ln)" recorded_value=5.45
molecule="CNC(=O)O/N=C(\\SC)C(=O)N(C)C [Oxamyl]" target_of_assay="Caenorhabditis elegans N2" reported_endpoint="mean nematode size ln(EXT) (ln)" recorded_value=6.42
molecule="O=C1C2(Cl)C3(Cl)C4(Cl)C(Cl)(Cl)C5(Cl)C3(Cl)C1(Cl)C5(Cl)C24Cl (centres undefined) [Kepone (Chlordecone)]" target_of_assay="Caenorhabditis elegans N2" reported_endpoint="mean nematode size ln(EXT) (ln)" recorded_value=3.69
molecule="O=c1ccc(=O)[nH][nH]1 [Maleic hydrazide]" target_of_assay="Caenorhabditis elegans N2" reported_endpoint="mean nematode size ln(EXT) (ln)" recorded_value=5.96
molecule="CC(C)(C)c1cc(C(C)(C)C)c(O)c(C(C)(C)C)c1 [2,4,6-Tris(tert-butyl)phenol]" target_of_assay="Caenorhabditis elegans N2" reported_endpoint="mean nematode size ln(EXT) (ln)" recorded_value=5.58
molecule="CCCOC(=O)c1ccc(O)cc1 [Propylparaben]" target_of_assay="Caenorhabditis elegans N2" reported_endpoint="mean nematode size ln(EXT) (ln)" recorded_value=5.84
molecule="CC/C(=C(\\c1ccccc1)c1ccc(OCCN(C)C)cc1)c1ccccc1 [Tamoxifen]" target_of_assay="Caenorhabditis elegans N2" reported_endpoint="mean nematode size ln(EXT) (ln)" recorded_value=3.84
molecule="COc1cc(-c2ccc(N)c(OC)c2)ccc1N [3,3'-Dimethoxybenzidine)]" target_of_assay="Caenorhabditis elegans N2" reported_endpoint="mean nematode size ln(EXT) (ln)" recorded_value=6.06
molecule="CSC1=N[C@@](C)(c2ccccc2)C(=O)N1Nc1ccccc1 [Fenamidone]" target_of_assay="Caenorhabditis elegans N2" reported_endpoint="mean nematode size ln(EXT) (ln)" recorded_value=6.02
molecule="O=C(O)C(F)(F)C(F)(F)C(F)(F)C(F)(F)C(F)(F)C(F)(F)C(F)(F)C(F)(F)F [Perfluorononanoic acid]" target_of_assay="Caenorhabditis elegans N2" reported_endpoint="mean nematode size ln(EXT) (ln)" recorded_value=4.27
molecule="C=CC1(C)OC(=O)N(c2cc(Cl)cc(Cl)c2)C1=O (centres undefined) [Vinclozolin]" target_of_assay="Caenorhabditis elegans N2" reported_endpoint="mean nematode size ln(EXT) (ln)" recorded_value=3.32
